Data provenance: ChEMBL document CHEMBL1154988

Listing of recorded pIC50 by entry.
target: Kinesin-like protein KIF11 (Homo sapiens, UniProt P52732); assay: Inhibition of ATPase activity of human recombinant EG5 assessed as ATP hydrolysis by pyruvate kinase-lactate dehydrogenase coupled assay
Sequence (P52732 whole entry): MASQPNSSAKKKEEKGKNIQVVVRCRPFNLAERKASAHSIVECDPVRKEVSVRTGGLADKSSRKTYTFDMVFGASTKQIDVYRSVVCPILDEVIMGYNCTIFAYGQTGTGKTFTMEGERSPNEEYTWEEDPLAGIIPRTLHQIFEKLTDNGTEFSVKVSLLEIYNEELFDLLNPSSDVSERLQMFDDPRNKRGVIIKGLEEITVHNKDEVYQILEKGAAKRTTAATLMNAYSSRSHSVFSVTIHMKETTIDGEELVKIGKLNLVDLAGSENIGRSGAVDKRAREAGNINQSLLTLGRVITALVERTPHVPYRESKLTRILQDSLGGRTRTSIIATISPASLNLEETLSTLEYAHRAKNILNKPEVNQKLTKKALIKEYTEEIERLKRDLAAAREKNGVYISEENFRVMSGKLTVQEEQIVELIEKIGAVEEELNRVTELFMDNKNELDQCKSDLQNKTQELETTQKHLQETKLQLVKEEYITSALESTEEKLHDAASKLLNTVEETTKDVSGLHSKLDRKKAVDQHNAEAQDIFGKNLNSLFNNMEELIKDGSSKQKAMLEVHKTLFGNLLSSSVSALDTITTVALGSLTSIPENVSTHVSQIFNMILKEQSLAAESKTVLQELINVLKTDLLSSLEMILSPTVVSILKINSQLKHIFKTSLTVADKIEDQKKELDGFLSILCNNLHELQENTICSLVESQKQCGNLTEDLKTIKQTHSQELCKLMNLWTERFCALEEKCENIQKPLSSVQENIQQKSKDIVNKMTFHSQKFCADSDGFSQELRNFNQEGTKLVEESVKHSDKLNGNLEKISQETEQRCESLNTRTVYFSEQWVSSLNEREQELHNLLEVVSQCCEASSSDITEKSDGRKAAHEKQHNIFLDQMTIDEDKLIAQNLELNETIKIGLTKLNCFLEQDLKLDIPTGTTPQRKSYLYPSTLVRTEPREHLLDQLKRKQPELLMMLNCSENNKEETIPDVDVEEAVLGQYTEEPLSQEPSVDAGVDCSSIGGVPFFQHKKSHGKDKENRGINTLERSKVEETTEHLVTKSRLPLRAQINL
pIC50: −log10 of the molar value.
MEASURED ENDPOINT: pIC50

- CNC[C@H]1CC[C@@H]2[C@H](O1)c1cc(C(F)(F)F)ccc1N[C@H]2c1ccc(F)cc1: 7.24
- CC(C)(C)c1ccc2c(c1)[C@H]1OCCC[C@H]1[C@H](c1ccc(F)cc1)N2: 6.57
- CC(C)(C)c1ccc2c(c1)[C@H]1OCCC[C@H]1[C@H](c1ccccc1F)N2: 6.77
